Please go through the items and note down their normalized RNA/DNA level with ligand (log10).
B1: library; a variant is named by its letters at N, in order (parent)
chain: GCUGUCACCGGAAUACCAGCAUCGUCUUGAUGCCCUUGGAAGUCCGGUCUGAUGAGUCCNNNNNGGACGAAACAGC

Variants of: B1
Assay: normalized RNA/DNA level with ligand (relative to sTRSVctl = 100) (log10 (% of sTRSVctl)); higher = less ribozyme self-cleavage, higher mRNA level
Conditions: ligand concentration (+) RNA-Seq: 5 mM, HEK293T, reporter: mCherry (pCS4076), ligand present: yes
One number for each entry.

* AGAAG | 1.93
* UAGAU | 2.02
* AAGAC | 1.91
* ACAUA | 1.94
* UCCCU | 2.08
* AAAAG | 1.97
* GAUCG | 1.9
* UCACU | 2

Would you be so kind as to report normalized RNA/DNA level with ligand (log10) for each listed record?
1. CCUUU
2. ACCCC
3. CAUGA
4. CGCCC
5. UGAUG
6. AAGAG
7. ACCAA

[2.05, 2.04, 2.03, 2.01, 2, 1.97, 2.02]

Would you be so kind as to report normalized RNA/DNA level with ligand (log10) for each listed record?
1. UAGUC
2. AUGUC
3. AGGCA
4. ACCGA
5. CAACU
6. CUUAU
7. UGGAU
8. UUGUG

1: 1.92; 2: 1.99; 3: 1.99; 4: 2.01; 5: 1.98; 6: 2.04; 7: 2; 8: 1.96

Would you be so kind as to report normalized RNA/DNA level with ligand (log10) for each listed record?
1. AGGUA
2. AACAG
3. CGUUC
4. AGAAA
5. ACAGC
6. CCCCC

[1.98, 1.85, 1.86, 1.85, 1.97, 2.03]

Would you be so kind as to report normalized RNA/DNA level with ligand (log10) for each listed record?
1. AAGGG
2. GCAGU
3. CAAAC
4. UCUGA
5. UGACA
6. CGGAA

[1.85, 1.97, 1.92, 2.04, 1.93, 1.9]

Where do these numbers come from? They come from the supplement of paper PMC6757056.
